assay: qHTS Assay for Lipid Storage Modulators (AID 1519); details: Drosophila S3 cells, BODIPY lipid droplet/cell ratio, laser cytometry; measured here: lipid channel max response; cells loaded with oleic acid
Records with an inconclusive call do not appear.
# max response per entry
Please state the figure in %; there is no need to write the unit.

For orientation, consider the following solved cases.
| COMPOUND | UNITS LABEL | OBSERVED MEASUREMENT |
| --- | --- | --- |
| CCCCCC1C(=O)CCC1CC(=O)O (centres undefined) | % | 28.3 |
| COC(=O)CCC(C)C1CCC2C3C(O)C[C@@H]4CC(O)CC[C@@]4(C)C3CC(O)[C@]12C (some centres undefined) | % | 3.42 |
| CC(=O)OCC1OC(n2cnc3c(Cl)nc(Cl)nc32)C(OC(C)=O)C1OC(C)=O (centres undefined) | % | 12.7 |
| COc1c(OC)c2occc2c2oc(=O)ccc12 | % | 12.4 |

Q. // returns reported max response for input NC1(C(=O)O)CCCC1
A. 7.88

###

tested on: TAB165; test: qHTS profiling for inhibitors of Plasmodium falciparum proliferation (AID 504749); note: nearly all actives have a fitted effect of over 60% in size; details: P. falciparum in erythrocytes, SYBR Green DNA, 72 h; series mostly up to 12.8 µM
Inconclusive results are not listed. Activity calls are given as the source filed them. Calls follow the shape of the dose curve; as a rule, active = well fitted inhibition curve with a large enough effect; inconclusive = small, poorly fitted or top-dose-only effect; inactive = flat fitted curve, though single readings scatter.
Valid outcomes are listed here; reply with one: active, inactive

Q. Dear all, I need the recorded test outcome for CCCCC[C@H](O)/C=C\[C@H]1[C@H](C/C=C\CCCC(=O)O)[C@@H](O)C[C@H]1O (tested in a mixture with another compound) , thank you.
A. inactive

Q. Now the molecule O=C(NC[C@@H](O)CO)c1c(I)c(C(=O)NC[C@@H](O)CO)c(I)c(N(CCO)C(=O)CO)c1I
A. inactive

###

molecular target: Rap guanine nucleotide exchange factor 3 (Homo sapiens) (UniProt O95398); test: Counterscreen qHTS for agonist of cAMP-regulated guanine nucleotide exchange factor 3 (EPAC1) (AID 1645889); details: EPAC1 Rap1B-BODIPY-GDP exchange, fluorescence; series mostly up to 154 µM; note: % of control where 0% means no effect; nearly all actives have a fitted effect of over 40% in size
Records with an inconclusive call do not appear. The source made the active and inactive calls. The call rests on the fitted dose curve; in most records, active means well fitted activation curve with a large enough effect; inconclusive means small, poorly fitted or top-dose-only effect, or another doubt; inactive means no such curve, though single readings can be large or run the other way.
MEASURED QUANTITY: activation

| MOLECULE | activation |
| --- | --- |
| Cc1cc2oc(=O)c3c(c2cc1OC(=O)c1ccco1)CCCC3 | inactive |
| CCOC(=O)N1CCN(C(=O)c2cc(S(=O)(=O)N3CCc4ccccc43)ccc2OC)CC1 | inactive |
| COc1ccccc1N1CCN(c2ncnc3onc(-c4ccc(F)cc4)c23)CC1 | inactive |
| COc1ccc(C2c3c(-c4ccccc4O)n[nH]c3C(=O)N2Cc2ccco2)cc1 (stereo unspecified) | inactive |
| O=C(CCCc1ccccc1)NCc1cn2ccsc2n1 | inactive |
| COC(=O)CSc1nc2c(c(=O)n(C)c(=O)n2C)n1CCCc1ccccc1 | 0.96% [at 30.8 µM] (inactive) |

Q. // returns reported activation for input Cc1ccc(Sc2ccc(S(=O)(=O)Nc3ccc(C(=O)O)cc3)cc2)cc1C
A. inactive

Q. Now the molecule CCOc1nc(C)cc(C)c1S(=O)(=O)c1ccc(Cl)cc1
A. 9.26% [at 30.8 µM] (inactive)

Q. Now the molecule Nc1nc(NCC(=O)O)nc(NCc2ccccc2)c1[N+](=O)[O-]
A. inactive

Q. Now the molecule S=C(NCCCN1CCOCC1)Nc1cccc(-c2nnc3n2CCCCC3)c1
A. inactive

Q. Now the molecule CN[C@@H](CO)C(=O)NC[C@H]1O[C@@H](n2cnc3c(N)ncnc32)[C@H](O)[C@@H]1O
A. inactive

Q. Now the molecule Cc1[nH]c(C)c2c(=O)n(Cc3ccc(Cl)cc3)ncc12
A. inactive

###

tested on: P93_24; experiment: qHTS profiling for inhibitors of Plasmodium falciparum proliferation (AID 504749); note: nearly all actives have a fitted effect of over 60% in size; settings: P. falciparum in erythrocytes, SYBR Green DNA, 72 h; series mostly up to 12.8 µM
Records with an inconclusive call do not appear. Active and inactive are the calls of the source. The call rests on the fitted dose curve; in most records, active means well fitted inhibition curve with a large enough effect; inconclusive means small, poorly fitted or top-dose-only effect; inactive means flat fitted curve, though single readings scatter.
Valid outcomes are listed here; reply with one: true = active, false = inactive

Recorded results for 3 compounds are shown here.
| COMPOUND | CLASS |
| --- | --- |
| C[C@H](CCC(=O)O)[C@H]1CC[C@@H]2[C@@H]3[C@@H](O)C[C@H]4C[C@@H](O)CC[C@@]4(C)[C@H]3CC[C@@]21C | false |
| OCC1O[C@H](OC2C(CO)O[C@@](O)(CO)C2O)C(O)C(O)C1O (some centres undefined) | false |
| COC1C=CO[C@@]2(C)Oc3c(C)c(O)c4c(O)c(c(C=NN5CCN(C)CC5)c(O)c4c3C2=O)NC(=O)/C(C)=C\C=CC(C)C(O)[C@@H](C)C(O)C(C)[C@H](OC(C)=O)C1C (some centres undefined) | true |

Q. Dear all, I need the recorded test outcome for CC1(C)[C@@H](OC(=O)CCC(=O)O)CC[C@@]2(C)[C@H]1CC[C@@]1(C)[C@H]2C(=O)C=C2[C@H]3C[C@](C)(C(=O)O)CC[C@]3(C)CC[C@@]21C , thank you.
A. false

###

assay: Confirmation and Secondary Assay for Modulators of Hemoglobin Beta Chain Splicing at IVS2 705 locus (AID 930); settings: HeLa EGFP-705 splicing reporter, GFP fluorescence, 48 h; series mostly up to 46.1 µM;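 note: HeLa cells stably expressing the EGFP-705 splicing reporter; GFP fluorescence per well restored by corrected splicing of the IVS2-705 intron in EGFP; % of control where 0% means no effect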
The source made the active and inactive calls. Calls follow the shape of the dose curve; as a rule, active = well fitted activation curve with a large enough effect; inconclusive = small, poorly fitted or top-dose-only effect; inactive = flat fitted curve, though single readings scatter.
MEASURED QUANTITY: outcome

For orientation, consider the following solved cases.
| COMPOUND | outcome |
| --- | --- |
| CC(=O)OC1CC(OC(C)=O)[C@]2(C)C(CC(O)[C@]3(C)C2CC[C@@]2(C)C(c4ccoc4)OC(=O)C4O[C@]432)C1(C)C (stereo partly drawn) | inactive |
| C=C1C[C@@]23C[C@@]1(O)CCC2[C@@]12C=CC(O)[C@](C)(C(=O)O1)C2C3C(=O)O (stereo partly drawn) | inactive |
| CC(=O)O[C@@]1(C(C)=O)CCC2C3C=C(Cl)C4=CC(=O)C5CC5[C@@]4(C)C3CC[C@]21C (stereo partly drawn) | inactive |
| O=C(O)C1=CC(O)[C@@H](O)C(O)C1 (stereo partly drawn) | inactive |
| CC1(C)OC2CC(=O)OC[C@@]23C1CC(=O)[C@]1(C)C3CC[C@@]2(C)C(c3ccoc3)OC(=O)C3O[C@@]321 (stereo partly drawn) | inactive |
| Cc1cc(O)c2c(c1O)C(=O)c1c(O)cc(C)c(O)c1C2=O | inactive |
| C=C(C)C1COc2cc3oc(=O)ccc3cc2O1 (stereo not drawn) | inactive |
| CC(=O)OCC1=C(C(=O)O)N2C(=O)C(NC(=O)Cc3cccs3)C2SC1 (stereo not drawn) | inactive |
| CC(C)=CCC/C(C)=C/COc1ccc2ccc(=O)oc2c1 | inactive |
| COc1cc(-c2oc3cc(O)ccc3c(=O)c2O)ccc1O | inactive |

From here, focus on the item given below.
Q. // returns reported outcome for input C[C@@]12C=CC(=O)C=C1CCC1C3CC(O)[C@@](O)(C(=O)CO)[C@]3(C)CC(O)[C@]12F (stereo partly drawn)
A. inactive

###

molecular target: Cytochrome P450 2C9 (Homo sapiens); experiment: Cytochrome P450 family 2 subfamily C member 9 (CYP2C9) small molecule antagonists: luciferase biochemical (cell-free) qHTS assay (AID 1645842); conditions: P450-Glo CYP2C9 enzyme assay, luciferin luminescence; series mostly up to 57.4 µM; note: nearly all actives have a fitted effect of over 55% in size; note: potency is the fitted concentration of half-maximal effect
Results filed as inconclusive are left out. The source made the active and inactive calls. The call rests on the fitted dose curve; in most records, active means well fitted inhibition curve with a large enough effect in the repeat runs; inconclusive means weak or mixed curves; inactive means no such curve, though single readings can be large or run the other way.
MEASURED QUANTITY: Potency

For orientation, consider the following solved cases.
| COMPOUND | Potency |
| --- | --- |
| Cc1ccc(C2=CC(c3ccccc3F)n3c(nc4ccccc43)N2)cc1C (configuration not stated) | 6.01 µM (active) |
| O=C(O)[C@@H]1CCCN1 | inactive |
| O=C(CSc1nc2ccsc2c(=O)n1Cc1ccccc1F)NCc1ccccc1Cl | 1.51 µM (active) |
| CCn1cc2nc(SCC(=O)Nc3ccc(OC)c(OC)c3)n(Cc3ccc(Cl)cc3)c(=O)c2n1 | 3.79 µM (active) |
| Cc1cccc(NC(=O)Cn2cc(C(=O)c3ccco3)c3ccccc32)c1C | 3.01 µM (active) |

Q. // returns reported Potency for input Cc1cccn2c(=O)cc(CSc3nnc(NC(=O)COc4ccccc4)s3)nc12
A. 6.74 µM (active)

Q. Now the compound CC1=C(C(=O)Nc2nnc(C(F)(F)F)s2)C(c2ccccc2Cl)N=C(Nc2nc3ccccc3o2)N1 (configuration not stated)
A. 10.7 µM (active)

Q. Now the compound Cc1ccc(-n2nc3c(N4CCCC(C(=O)NCc5ccccc5C)C4)nnc(C)c3c2C)cc1 (configuration not stated)
A. 2.68 µM (active)

Q. Now the compound COC(=O)Cc1ccc(NC(=O)C2=C(C)NC(Nc3nc4ccccc4o3)=NC2c2ccccc2Cl)cc1 (configuration not stated)
A. 0.756 µM (active)

Q. Now the compound CCCOCc1cc(CN2CCN(c3cccc(Cl)c3)CC2)c(O)c2ncccc12
A. 6.74 µM (active)
